assay: Microsomal stability assay, human liver microsomes; conditions: human liver microsomal data;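 note: pooled human liver microsomes at 0.25 mg/mL with 1 µM compound and NADPH at 37 °C, pH 7.4, for 30 min, unchanged parent quantified by LC-MS/MS against the 0 min sample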
The reader will find reported HLM values listed item by item below.
The figure you give is taken to be in µL/min/mg; do not add the unit.

These recorded examples may help you get a feel for the data.
COCC(=O)N[C@@H](Cc1ccnc(OC)c1)[C@H](O)CN[C@H]1CC2(CCC2)Oc2ncc(CC(C)(C)C)cc21 | 172
CCO[C@H](C)C(=O)N[C@@H](Cc1ccc2c(c1)OCO2)[C@H](O)CN[C@H]1CC2(CCC2)Oc2ncc(CC(C)C)cc21 | 49
CC(C)(C)Cc1cnc2c(c1)[C@@H](NC[C@@H](O)[C@H](Cc1ccc3c(c1)OCO3)NC(=O)[C@@H]1CCO1)CC1(CCC1)O2 | 32
COCC(=O)N[C@@H](Cc1cc(F)cc(F)c1)[C@H](O)CN[C@H]1CC2(CCC2)Oc2c1cc(CC(C)C)cc2-n1ccnc1 | 25.5
COCC(=O)N[C@@H](Cc1cccc(-n2cccn2)c1)[C@H](O)CN[C@H]1CC2(CCC2)Oc2ncc(CC(C)(C)C)cc21 | 515

Switching to the query record.
Ask: Which value of HLM has been reported for COCC(=O)N[C@@H](Cc1ccccc1)[C@H](O)CN[C@H]1CC2(CCC2)Oc2c1cc(CC(C)(C)C)nc2-c1ccncc1 in the records?
Reply: 31

----------
biological target: UniProt P10635; assay: CYP2D6 inhibition assay (bufuralol, pooled human liver microsomes); conditions: 2D6 IC50 (uM), CYP2D6 inhibition
Sequence (P10635 whole entry): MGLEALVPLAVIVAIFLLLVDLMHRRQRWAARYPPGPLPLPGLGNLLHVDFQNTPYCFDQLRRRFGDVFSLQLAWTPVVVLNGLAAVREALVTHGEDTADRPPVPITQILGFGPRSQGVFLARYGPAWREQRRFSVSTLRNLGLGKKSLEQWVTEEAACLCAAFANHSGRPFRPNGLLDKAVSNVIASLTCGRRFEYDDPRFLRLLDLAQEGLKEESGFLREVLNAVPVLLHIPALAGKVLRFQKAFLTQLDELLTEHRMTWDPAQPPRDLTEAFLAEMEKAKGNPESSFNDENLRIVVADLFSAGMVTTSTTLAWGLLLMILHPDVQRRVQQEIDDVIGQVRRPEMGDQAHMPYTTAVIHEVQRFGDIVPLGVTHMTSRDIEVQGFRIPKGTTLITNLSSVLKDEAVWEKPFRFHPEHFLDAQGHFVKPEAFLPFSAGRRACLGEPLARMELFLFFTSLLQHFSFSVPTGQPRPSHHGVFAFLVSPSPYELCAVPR
The reader will find reported IC50 values listed item by item below.
The figure you give is taken to be in µM; do not add the unit.

These recorded examples may help you get a feel for the data.
COCC(=O)N[C@@H](Cc1cc(F)cc(-c2nccs2)c1)[C@H](O)CN[C@H]1CC2(CCC2)Oc2ncc(CC(C)(C)F)cc21 | 0.9
COCC(=O)N[C@@H](Cc1cc(F)cc(-c2ncc(C)s2)c1)[C@H](O)CN[C@H]1CC2(CCC2)Oc2ncc(CC(C)C)cc21 | 2.5

Switching to the query record.
Ask: // lookup IC50 | system=UniProt P10635 | key= CC(=O)N[C@@H](Cc1ccc(F)cc1)[C@H](O)CN[C@H]1CC2(CCNC2)Oc2cnc(CC(C)(C)C)cc21 (stereo partly drawn)
Reply: 13.5

----------
The reader will find reported RLM values listed item by item below.
experiment: Microsomal stability assay, rat liver microsomes; details: rat liver microsomes;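 note: rat liver microsomes (0.25 mg/mL) with about 1 µM compound plus 1 mM NADPH, pH 7.4, 37 °C for 30 min, parent left measured by LC-MS/MS against 0 min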
The figure you give is taken to be in µL/min/mg; do not add the unit.

These recorded examples may help you get a feel for the data.
COCC(=O)N[C@@H](Cc1cc(F)cc(F)c1)[C@H](O)CN[C@H]1CC(C)(C)Oc2c1cc(Br)c1c2OCO1 | 144
COCC(=O)N[C@@H](Cc1cccc(F)c1)[C@H](O)CN[C@H]1CC2(CCC2)Oc2c1cc(CC(C)(C)OC)cc2-n1ccnc1.O=C(O)C(F)(F)F | 132
CC(=O)N[C@@H](Cc1cccc(-c2nccs2)c1)[C@H](O)CN[C@H]1CC2(CCC2)Oc2ccc(CC(C)(C)C)cc21 | 165
CC(=O)N[C@@H](Cc1cc(F)cc(-c2nccs2)c1)[C@H](O)CN[C@H]1CC2(CCC2)Oc2ncc(CC(C)(C)C)cc21 [Example 435] | 197
COCC(=O)N[C@@H](Cc1cccc(C#N)c1)[C@H](O)CN[C@H]1CC2(CCC2)Oc2c(-c3ccncc3)cc(CC(C)(C)C)cc21 | 90

Ask: Which value of RLM has been reported for CC(=O)N[C@@H](Cc1cc(F)cc(F)c1)[C@H](O)CN[C@H]1CC2(CCC2)Oc2c(-c3ccncc3)cc(CC(C)C)cc21 in the records?
Reply: 118

Ask: Please do the same for CO[C@H](C)C(=O)N[C@@H](Cc1cccc(F)c1)[C@H](O)CN[C@H]1CC2(CCC2)Oc2c(-c3ccncc3)cc(CC(C)(C)C)cc21 as well.
Reply: 120
